Structures can show the parent of a compound that is named as a salt.
Observed IC50, system human LCE (Homo sapiens, UniProt Q9H5J4).
Endpoint label: IC50 (nM)

                                    molecule                                    system  reported_measurement
 0  CC(C)Oc1ccc(NC(=O)c2cccc(S(=O)(=O)N3CCC[C@@H](C(N)=O)C3)c2)nc1  human LCE (Homo sapiens, UniProt Q9H5J4)                  3000
 1  CC(C)Oc1ccc(NC(=O)c2cc(S(=O)(=O)N3CCCCC3)ccc2OCC(=O)O)cc1  human LCE (Homo sapiens, UniProt Q9H5J4)                   300
 2  CC(C)c1ccc(NC(=O)c2cccc(S(=O)(=O)NC3CCCCC3)c2)cc1  human LCE (Homo sapiens, UniProt Q9H5J4)                  1000
 3  CC(C)Oc1ccc(NC(=O)c2cccc(S(=O)(=O)N3CC4CC5CC(C4)CC3C5)c2)cc1  human LCE (Homo sapiens, UniProt Q9H5J4)                  5100
 4  CC(C)Oc1cc(NC(=O)c2cccc(S(=O)(=O)N3CCOCC3)c2)[nH]n1 [Example 63, hydrochloride]  human LCE (Homo sapiens, UniProt Q9H5J4)                    18
 5  O=C(Nc1ccccn1)c1cccc(S(=O)(=O)N2CCCCC2)c1 [Example 74, trifluoroacetate]  human LCE (Homo sapiens, UniProt Q9H5J4)                  4900
 6  O=C(NCCc1ccccc1)c1cccc(S(=O)(=O)N2CCCCC2)c1  human LCE (Homo sapiens, UniProt Q9H5J4)                  7900
 7  CC(C)Oc1cc(NC(=O)c2cccc(S(=O)(=O)N3CCCC3C)c2)[nH]n1 (stereo not drawn) [Example 64, hydrochloride]  human LCE (Homo sapiens, UniProt Q9H5J4)                     5
 8  CC(C)Oc1ccc(NC(=O)c2cccc(S(=O)(=O)c3ccccn3)c2)nc1Br  human LCE (Homo sapiens, UniProt Q9H5J4)                  4500
 9  Cc1cccc(S(=O)(=O)c2cccc(C(=O)Nc3ccc(OC(C)C)cc3)c2)n1  human LCE (Homo sapiens, UniProt Q9H5J4)                   680
10  CC(C)Oc1ccc(C(=O)NCCc2cccc(S(=O)(=O)N3CCCCC3)c2)cc1  human LCE (Homo sapiens, UniProt Q9H5J4)                  4800
11  CC(C)Oc1ccc(NC(=O)c2cccc(S(=O)(=O)N3CC4CCC3CC4)c2)cc1  human LCE (Homo sapiens, UniProt Q9H5J4)                   110
12  CC(C)Oc1ccc(NC(=O)c2cccc(S(=O)(=O)N3CCOC(COc4ccccc4)C3)c2)cc1 (stereo not drawn)  human LCE (Homo sapiens, UniProt Q9H5J4)                   150
13  CC(C)Oc1ccc(NC(=O)c2cc(S(=O)(=O)N3CCCCC3)ccc2OCCC#N)cc1  human LCE (Homo sapiens, UniProt Q9H5J4)                   420
14  CC(C)Oc1ccc(NC(=O)Cc2cccc(S(=O)(=O)N3CCCCC3)c2)cc1  human LCE (Homo sapiens, UniProt Q9H5J4)                   130
15  CC(C)Oc1cc(NC(=O)c2cccc(S(=O)(=O)N3CCCC(CO)C3)c2)[nH]n1 (stereo not drawn) [Example 65, hydrochloride]  human LCE (Homo sapiens, UniProt Q9H5J4)                   5.9
16  CCOc1cc(NC(=O)c2cccc(S(=O)(=O)c3ccccn3)c2)[nH]n1  human LCE (Homo sapiens, UniProt Q9H5J4)                   280
17  CC(C)Oc1ccc(NC(=O)c2cccc(S(=O)(=O)N3CCN4CCCC4C3)c2)cc1 (stereo not drawn)  human LCE (Homo sapiens, UniProt Q9H5J4)                  6800
18  COC1CCCN(S(=O)(=O)c2cccc(C(=O)Nc3ccc(OC(C)C)cc3)c2)C1 (stereo not drawn)  human LCE (Homo sapiens, UniProt Q9H5J4)                   510
19  CC(C)c1ccc(NC(=O)c2cccc(S(=O)(=O)N3CCCCC3C)c2)cc1 (stereo not drawn)  human LCE (Homo sapiens, UniProt Q9H5J4)                   100
20  CC(C)Oc1ccc(NC(=O)c2cccc(S(=O)(=O)N3CC4CCC3C4)c2)cc1 (stereo not drawn)  human LCE (Homo sapiens, UniProt Q9H5J4)                    36
21  CC(C)Oc1ccc(NC(=O)c2cccc(S(=O)(=O)N3CCN4CCCCC4C3)c2)cc1 (stereo not drawn) [Example 13, trifluoroacetate]  human LCE (Homo sapiens, UniProt Q9H5J4)                  5200
22  O=C(Nc1cc(C2CC2)n[nH]1)c1cccc(S(=O)(=O)c2ncccn2)c1  human LCE (Homo sapiens, UniProt Q9H5J4)                   380
23  CC(C)Oc1ccc(NC(=O)c2cccc(S(=O)(=O)c3cccnc3)c2)cc1  human LCE (Homo sapiens, UniProt Q9H5J4)                  1500
24  CCc1cnc(NC(=O)c2cccc(S(=O)(=O)N3CCCCC3)c2)c(OC)c1  human LCE (Homo sapiens, UniProt Q9H5J4)                   100
25  COc1cccnc1NC(=O)c1cccc(S(=O)(=O)C2CCCCC2)c1  human LCE (Homo sapiens, UniProt Q9H5J4)                   190
26  COc1cc(-c2ccccc2)cnc1NC(=O)c1cccc(S(=O)(=O)N2CCCC2)c1  human LCE (Homo sapiens, UniProt Q9H5J4)                  3200
27  CC(O)c1ccc(NC(=O)c2cccc(S(=O)(=O)N3CCCCC3)c2)cc1 (stereo not drawn)  human LCE (Homo sapiens, UniProt Q9H5J4)                  1300
28  COc1cccnc1NC(=O)c1cccc(S(=O)(=O)N2CCOCC2)c1  human LCE (Homo sapiens, UniProt Q9H5J4)                  1400
29  CCOc1ccc(S(=O)(=O)N2CCCCC2)cc1C(=O)Nc1ccc(OC(C)C)cc1  human LCE (Homo sapiens, UniProt Q9H5J4)                   180
30  CC(C)c1ccc(NC(=O)c2cncc(S(=O)(=O)c3ccccc3)c2)cc1  human LCE (Homo sapiens, UniProt Q9H5J4)                  3400
31  CC(C)Oc1ccc(NC(=O)c2cccc(S(=O)(=O)N3CCCC(CN4CCOCC4)C3)c2)cc1 (stereo not drawn) [Example 14, trifluoroacetate]  human LCE (Homo sapiens, UniProt Q9H5J4)                  1200
32  COc1cccnc1NC(=O)c1cccc(S(=O)(=O)N2CC3CCC2C3)c1 (stereo not drawn)  human LCE (Homo sapiens, UniProt Q9H5J4)                    67
